biological target: Dopamine beta-hydroxylase (Rattus norvegicus, UniProt Q05754)
Sequence (Q05754 whole entry): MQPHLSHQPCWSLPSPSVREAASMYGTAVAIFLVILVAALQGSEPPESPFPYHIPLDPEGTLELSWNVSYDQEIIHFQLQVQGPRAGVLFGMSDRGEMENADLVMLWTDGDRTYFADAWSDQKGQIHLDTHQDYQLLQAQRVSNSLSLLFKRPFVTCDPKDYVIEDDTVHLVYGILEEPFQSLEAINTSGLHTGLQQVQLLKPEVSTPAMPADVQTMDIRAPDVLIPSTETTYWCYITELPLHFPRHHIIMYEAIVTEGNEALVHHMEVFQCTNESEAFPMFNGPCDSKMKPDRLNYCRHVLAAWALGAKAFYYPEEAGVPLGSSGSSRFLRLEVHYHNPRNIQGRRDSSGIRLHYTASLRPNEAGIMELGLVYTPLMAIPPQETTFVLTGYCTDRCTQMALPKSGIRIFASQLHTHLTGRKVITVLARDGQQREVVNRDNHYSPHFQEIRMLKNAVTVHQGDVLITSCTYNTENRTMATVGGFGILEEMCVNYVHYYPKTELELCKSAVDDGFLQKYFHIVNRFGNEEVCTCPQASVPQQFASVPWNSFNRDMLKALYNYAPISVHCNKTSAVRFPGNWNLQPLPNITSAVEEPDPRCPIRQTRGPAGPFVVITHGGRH
In plain terms, low IC50, meaning strictly below 50 µM, gives satisfied, and everything else gives not satisfied.

Solved cases below.
>>> class_label("COc1c(Cl)cc(Cn2cc[nH]c2=S)cc1Cl")
"satisfied"
>>> class_label("COc1cccc(Cn2cc[nH]c2=S)c1")
"not satisfied"
>>> class_label("Oc1cccc(Cn2cc[nH]c2=S)c1")
"not satisfied"

Dear colleague, could you confirm whether IC50 of O=[N+]([O-])c1ccc(Cn2cc[nH]c2=S)cc1 falls below 50 µM? Thanks.
not satisfied

Does the reported IC50 of Oc1ccccc1Cn1cc[nH]c1=S stay below 50 µM?
not satisfied

A record lists S=c1[nH]ccn1Cc1ccc(Cl)cc1Cl . Is its IC50 below 50 µM?
satisfied

Bench note: check whether S=c1[nH]ccn1Cc1c(Cl)cc(Cl)cc1Cl shows IC50 below 50 µM
not satisfied

Lab note: IC50 threshold 50 µM. Does this compound come in strictly under it? COc1ccc(Cn2cc[nH]c2=S)cc1OC
not satisfied

Dear colleague, could you confirm whether IC50 of Cc1ccccc1Cn1cc[nH]c1=S falls below 50 µM? Thanks.
not satisfied

Is 50 µM strictly greater than the compound's reported IC50? compound: Cc1cccc(C)c1Cn1cc[nH]c1=S
not satisfied

Consider Cc1ccc(Cn2cc[nH]c2=S)cc1 . Does its IC50 lie strictly below 50 µM?
not satisfied

Lab note: confirm whether the reported IC50 for this compound is below 50 µM, equality not counting. compound: S=c1[nH]ccn1Cc1ccc(Br)cc1
not satisfied

Problem: For the compound S=c1[nH]ccn1Cc1cccc(Cl)c1Cl , is IC50 under 50 µM?
not satisfied
